The values you see were collected from patent US11198713B2.

- subject_of_test: UniProt P35222
- Sequence (P35222 whole entry): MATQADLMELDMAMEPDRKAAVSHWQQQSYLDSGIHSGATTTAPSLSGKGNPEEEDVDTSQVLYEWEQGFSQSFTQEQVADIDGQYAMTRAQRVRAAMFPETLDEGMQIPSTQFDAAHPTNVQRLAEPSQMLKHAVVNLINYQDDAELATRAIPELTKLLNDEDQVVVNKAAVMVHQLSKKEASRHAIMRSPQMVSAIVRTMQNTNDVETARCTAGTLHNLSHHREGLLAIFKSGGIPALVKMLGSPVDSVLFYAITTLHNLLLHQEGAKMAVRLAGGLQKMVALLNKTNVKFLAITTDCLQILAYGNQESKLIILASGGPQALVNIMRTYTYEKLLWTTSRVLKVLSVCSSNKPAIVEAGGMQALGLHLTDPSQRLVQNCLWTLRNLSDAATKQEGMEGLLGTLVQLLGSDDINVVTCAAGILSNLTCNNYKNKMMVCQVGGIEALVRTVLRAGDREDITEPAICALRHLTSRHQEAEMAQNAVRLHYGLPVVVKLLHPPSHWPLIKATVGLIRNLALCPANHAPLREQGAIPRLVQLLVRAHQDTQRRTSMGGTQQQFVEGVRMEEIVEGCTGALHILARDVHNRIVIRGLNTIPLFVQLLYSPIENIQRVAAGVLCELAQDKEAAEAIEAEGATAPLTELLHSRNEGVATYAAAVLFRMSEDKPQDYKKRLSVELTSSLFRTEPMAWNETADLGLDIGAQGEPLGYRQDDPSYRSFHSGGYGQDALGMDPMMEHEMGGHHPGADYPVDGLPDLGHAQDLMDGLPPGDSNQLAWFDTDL
- experimental_protocol: Surface Plasmon Resonance (Biacore)
- Type: binding
- conditions_used: Table 2; read-out: Kd by SPR
Numbered stars: 1 amine (or outer) side, 2 acyl side, 3 side chain; on linkers, the order of the positions; unused ones are H or OH. Bridge positions count the residues as written; N and C are the ends. Square brackets hold non-standard residues; d marks the D form. Peptide text beside a SMILES is read from it. dαMeDab(Me) = CN(CC[C@@](C)(N[*:1])C(=O)[*:2])[*:3]; X1 = O=C([C@]1(N[*:1])CCN([*:3])C1)[*:2]; X2 = O=C(OCC=CCOC(=O)[*:2])[*:1]
Reported pKd is given for each of the following compounds.
Lab note — pKd values are minus log10 of concentrations in M.

The cases that follow already have their pKd on record.
[
  {
    "compound": "CC[C@H](C)[C@@H]1NC(=O)[C@H](Cc2c[nH]cn2)NC(=O)[C@H](C)NC(=O)[C@H](CC(=O)O)NC(=O)[C@H](CC(C)C)NC(=O)[C@H]([C@@H](C)CC)NC(=O)[C@](C)(NC(=O)[C@H](C)NC(C)=O)CCC=CCOC(=O)N(C)CCC[C@@](C)(C(=O)N[C@@H](CCCNC(=N)N)C(=O)N[C@H](C(=O)N[C@@H](Cc2c[nH]c3ccccc23)C(N)=O)C(C)C)NC1=O [FP0509c, Ac-A-R4-I-L-D-A-H-I-MH-R-V-W-NH2]",
    "subject_of_test": "UniProt P35222",
    "pKd": 8.52
  },
  {
    "compound": "CC[C@H](C)[C@@H]1NC(=O)[C@@](C)(NC(=O)[C@H](CCC(N)=O)NC(=O)[C@@H]2CCCN2C(C)=O)CCCC=CCCC[C@@](C)(C(=O)N[C@@H](Cc2c[nH]cn2)C(=O)N[C@H](C(=O)N[C@@H](CCCNC(=N)N)C(=O)N[C@@H](CCCNC(=N)N)C(=O)N[C@H](C(=O)N[C@@H](Cc2c[nH]c3ccccc23)C(=O)N[C@@H](CCCNC(=N)N)C(N)=O)C(C)C)C(C)C)NC(=O)[C@H](CC(=O)O)NC(=O)[C@H](CC(C)C)NC1=O [FP0787s, Ac-P-Q-S5-I-L-D-S5-H-V-R-R-V-W-R-NH2]",
    "subject_of_test": "UniProt P35222",
    "pKd": 7.85
  },
  {
    "compound": "CC[C@H](C)[C@@H]1NC(=O)[C@@]2(NC(=O)[C@H](CCC(N)=O)NC(=O)[C@@H]3CCCN3C(C)=O)CCN(CC=CCCCC[C@](C)(C(=O)N[C@@H](Cc3c[nH]cn3)C(=O)N[C@H](C(=O)N[C@@H](CCCNC(=N)N)C(=O)N[C@@H](CCCNC(=N)N)C(=O)N[C@H](C(=O)N[C@@H](Cc3c[nH]c4ccccc34)C(=O)N[C@@H](CCCNC(=N)N)C(N)=O)C(C)C)C(C)C)NC(=O)[C@H](CC(=O)O)NC(=O)[C@H](CC(C)C)NC1=O)C2 (single isomer, unassigned) [FP0745a, Ac-P-Q-MC-I-L-D-R6-H-V-R-R-V-W-R-NH2]",
    "subject_of_test": "UniProt P35222",
    "pKd": 7.47
  }
]

// sample CC[C@H](C)[C@@H]1NC(=O)C2(NC(=O)[C@H](CCC(N)=O)NC(=O)[C@@H]3CCCN3C(C)=O)CN(C2)C(=O)OCC=CCCCC[C@](C)(C(=O)N[C@@H](Cc2c[nH]cn2)C(=O)N[C@H](C(=O)N[C@@H](CCCNC(=N)N)C(=O)N[C@@H](CCCNC(=N)N)C(=O)N[C@H](C(=O)N[C@@H](Cc2c[nH]c3ccccc23)C(=O)N[C@@H](CCCNC(=N)N)C(N)=O)C(C)C)C(C)C)NC(=O)[C@H](CC(=O)O)NC(=O)[C@H](CC(C)C)NC1=O (single isomer, unassigned) [FP0725c, Ac-P-Q-MA-I-L-D-R6-H-V-R-R-V-W-R-NH2] , its pKd was 7.66

Lab note: measured pKd of CC[C@H](C)[C@@H]1NC(=O)[C@@](C)(NC(=O)[C@H](CCC(N)=O)NC(=O)[C@@H]2CCCN2C(C)=O)CCCCCC=CCN2CC(C(=O)N[C@@H](Cc3c[nH]cn3)C(=O)N[C@H](C(=O)N[C@@H](CCCNC(=N)N)C(=O)N[C@@H](CCCNC(=N)N)C(=O)N[C@H](C(=O)N[C@@H](Cc3c[nH]c4ccccc34)C(=O)N[C@@H](CCCNC(=N)N)C(N)=O)C(C)C)C(C)C)(C2)NC(=O)[C@H](CC(=O)O)NC(=O)[C@H](CC(C)C)NC1=O (single isomer, unassigned) [FP0738a, Ac-P-Q-S7-I-L-D-MA-H-V-R-R-V-W-R-NH2] was 7.37

response.value for CC[C@H](C)[C@@H]1NC(=O)[C@](C)(NC(=O)[C@H](CCC(N)=O)NC(=O)[C@@H]2CCCN2C(C)=O)CCC=CCOC(=O)N2CC[C@](C(=O)N[C@@H](Cc3c[nH]cn3)C(=O)N[C@H](C(=O)N[C@@H](CCCNC(=N)N)C(=O)N[C@@H](CCCNC(=N)N)C(=O)N[C@H](C(=O)N[C@@H](Cc3c[nH]c4ccccc34)C(=O)N[C@@H](CCCNC(=N)N)C(N)=O)C(C)C)C(C)C)(C2)NC(=O)[C@H](CC(=O)O)NC(=O)[C@H](CC(C)C)NC1=O (single isomer, unassigned) [FP0765c, Ac-P-Q-R4-I-L-D-MC-H-V-R-R-V-W-R-NH2] (field: pKd) = 7.89

Entry CC[C@H](C)[C@@H]1NC(=O)[C@H](Cc2c[nH]cn2)NC(=O)[C@H](C)NC(=O)[C@H](CC(=O)O)NC(=O)[C@H](CC(C)C)NC(=O)[C@H]([C@@H](C)CC)NC(=O)[C@](C)(NC(=O)[C@H](C)NC(C)=O)CCN(C)C(=O)OCC=CCOC(=O)N2CC[C@@](C(=O)N[C@@H](CCCNC(=N)N)C(=O)N[C@H](C(=O)N[C@@H](Cc3c[nH]c4ccccc34)C(N)=O)C(C)C)(C2)NC1=O [FP0597c, Ac-A-MG-I-L-D-A-H-I-MB-R-V-W-NH2] (Ac-A[dαMeDab(Me)]ILDAHI[X1]RVW-NH2; linker 2-9 via X2) , pKd reported as 8.40
